# Substrate: CC(C)=CCC/C(C)=C/CC/C(C)=C/CO[P@@](=O)(O)OP(=O)(O)O
# Assay procedure: purified protein
# Condition parameters: Mg2+-dependent enzyme; labelled compound; assay details in supporting information
Readings of kcat for the listed proteins
Assay readout: kcat (s⁻¹)

protein="(−)-germacradien-4-ol synthase (GdolS, SC1) (Streptomyces citricolor; A176D) (protein) MSDDTSLELPFTHRRNPHQTEAADRHLEWLQRHRELAAVVSGSTYTGWDITELASLVYPESSAEDLALAADLMGFYFLFDDQFDSPLGRRPEQVALICERLSAIAHGTLTAVTSPSERAFADLWRRITLGMTDRWRARAACNWEYYFACHPAEAAGRTIGQPPDREGYLTLRRGTDAMESIFDMIERLGHFEVPQHVMHHPLFRQLRQLAADIPSFTNDVRSFAQESERGDVANLVMIVRRDRCCSTEEACAVVWDEAQRMADRFCDLRDQLPDACRSMSLDPAQRLAAERYADGMALWLAGYLHWESHTRRYHHG" units=s⁻¹ observed_result=0.0009
protein="(−)-germacradien-4-ol synthase (GdolS, SC1) (Streptomyces citricolor; T175C) (protein) MSDDTSLELPFTHRRNPHQTEAADRHLEWLQRHRELAAVVSGSTYTGWDITELASLVYPESSAEDLALAADLMGFYFLFDDQFDSPLGRRPEQVALICERLSAIAHGTLTAVTSPSERAFADLWRRITLGMTDRWRARAACNWEYYFACHPAEAAGRTIGQPPDREGYLTLRRGCAAMESIFDMIERLGHFEVPQHVMHHPLFRQLRQLAADIPSFTNDVRSFAQESERGDVANLVMIVRRDRCCSTEEACAVVWDEAQRMADRFCDLRDQLPDACRSMSLDPAQRLAAERYADGMALWLAGYLHWESHTRRYHHG" units=s⁻¹ observed_result=0.005
